For each entry below, report its growth value.
# System: SR leukemia
# PROCEDURE SUMMARY: NCI-60 one-dose screen, 48 h (100 = growth as untreated, 0 = no growth, -100 = all killed)
# CONDITION PARAMETERS: 10 µM unless noted
The panel holds about 83,000 compounds, 20% with a hit somewhere; the sample as a whole holds those more often.
Answers are plain numbers, in %.

Consider the following illustrative entries.
C#CC(OC(=O)N(C)C)(c1ccccc1)c1ccc(F)cc1 (stereo not given)
108
CN(Cc1cccc(C(F)(F)F)c1)C(=O)[C@@H](CC(=O)N1CCC(N2CCCCC2)CC1)N1C(=O)[C@@H](N2C(=O)OC[C@@H]2c2ccccc2)[C@H]1/C=C/c1ccccc1
54.3
N#CCCc1c[nH]c2ccccc12
91.5
Cn1cc(-c2noc(C(=O)c3cn(C)c4ncccc34)n2)c2ccccc21
74.9
COc1cccc(-c2[nH]c(=S)ncc2C(=O)c2ccccc2)c1
28.3
c1cc2ccc3cc2cc1CNCCN1CCNCc2ccc4ccc(cc4c2)CNCCN(CCNC3)CCNCc2ccc3ccc(cc3c2)CNCC1
10.1

Could you report growth for every entry in the following list?
1. C[C@]12CCc3c(ccc4cc(O)ccc34)[C@@H]1CC[C@H]2O
2. COc1ccc(-c2c(C)nn3c(NCCN4CCOCC4)cc(C)nc23)cc1OC

[74.3, 79.8]

Each molecule below has a reported value. Please supply its growth.
1. FC(F)(F)c1ccc2c(c1)Sc1ccccc1N2
2. CCN(CC)CCCNCc1cc(-c2ccccc2)nc2ccccc12

1: 89.5; 2: 4.37

* * *

Please provide measured growth for the entries that follow.
# Tested on: A549/ATCC NSCLC
# PROCEDURE SUMMARY: NCI-60 one-dose screen, 48 h (100 = growth as untreated, 0 = no growth, -100 = all killed)
# CONDITION PARAMETERS: 10 µM unless noted
This is part of a sample that, as a whole, favours compounds with a hit. Of some 83,000 tested, about 20% had one in any assay. The source made the active and inactive calls. How the source made its calls: active means growth percent below 10; inactive means the rest.

O=C(NNc1ccc(-c2ccccc2)nn1)c1ccccc1
106% (inactive)
CCN(CC)CCCCCCNc1cccc2cc(Br)cnc12
97.8% (inactive)
CCOC(=O)C(=Cc1ccccc1[N+](=O)[O-])C(=O)OCC
53.6% (inactive)

Each molecule below has a recorded value; state its growth.
1. c1nc(N2CCOCC2)c2[nH]ccc2n1
2. Nc1cc(C(=O)O)[nH]c(=S)n1
3. CCc1cccc(Cl)c1
4. N=C(N)c1ccc(-c2ccc(-c3ccc(-c4cccs4)s3)s2)cc1F
5. COc1ccc2c(c1)c(-c1noc(C(=O)c3cn(C)c4ncc(Br)cc34)n1)cn2C
6. Cc1ccc(Oc2c(/C=N/NC(=O)Cn3c(=O)sc4ccccc43)c(C)nn2-c2ccccc2)cc1
7. CCN(CC)CCCOc1ccc2c(c1)O/C(=C\c1cccc(OC)c1)C2=O
8. CC1(C)C(=O)/C(=C\c2ccco2)C[C@]2(C)[C@H]3CC=C4[C@@H]5C[C@](C)(C(=O)O)CC[C@]5(C)CC[C@@]4(C)[C@]3(C)CC[C@@H]12

99.9% (inactive)
98.5% (inactive)
98.8% (inactive)
15.1% (inactive)
28.1% (inactive)
32.8% (inactive)
93.5% (inactive)
-67.6% [100 µM] (active)

* * *

# Test system: SN12C renal
# PROCEDURE SUMMARY: NCI-60 one-dose screen, 48 h
# CONDITION PARAMETERS: 10 µM unless noted
About 83,000 compounds went through this panel and 20% of them were active in at least one assay; those are over-represented in the sample as a whole. Calls of active or inactive are those of the source. Rule for the calls: active = growth percent below 10; inactive = the rest.
Please answer using one outcome listed in True = active, False = inactive

CC(=O)Nc1ccc(C=Nc2ccc3ccccc3c2)cc1
False
CC1(C(=O)O)CCC(N)(C(=O)O)C1(C)C (stereo unspecified)
False
CCCCCCCCCCCCCCCCCCNC(=S)N/N=C/c1ccc(OC)c(OC)c1
False

Called result for C=C(C)[C@@H]1CC[C@]2(C(=O)OC)CC[C@]3(C)[C@H](CC[C@@H]4[C@@](C)(CCc5nn[nH]n5)[C@H](C(=C)C)CC[C@]43C)[C@@H]12
True

// repeat for COc1cc(-c2cc(-c3ccc(Nc4ncnc5cc(Cl)ccc45)cc3)nc(N3CCCCC3)n2)cc(OC)c1OC and report
False

Follow-up item: CC1(C)CC[C@]2(C(N)=O)CC[C@]3(C)C(=CC[C@@H]4[C@@]5(C)C/C(=C/c6ccncc6)C(=O)C(C)(C)[C@@H]5CC[C@]43C)[C@@H]2C1
True

Proceed to Cc1ccc(Oc2c(/C=N/NC(=O)Cn3c(=O)sc4ccccc43)c(C)nn2-c2ccccc2)cc1
False

* * *

# Tested on: NCI-H226 lung
# PROCEDURE SUMMARY: NCI-60 one-dose screen, 48 h
# CONDITION PARAMETERS: 10 µM unless noted
About 83,000 compounds went through this panel and 20% of them were active in at least one assay; those are over-represented in the sample as a whole. Activity calls are given as the source filed them. How the source made its calls: active means growth percent below 10; inactive means the rest.
// one of true (1) for active, false (0) for inactive, no free text

Solved cases below.
CC1(C)CC[C@]2(C(=O)OC(=O)[C@]34CCC(C)(C)C[C@@H]3C3=CC[C@@H]5[C@@]6(C)CCC(=O)C(C)(C)[C@@H]6CC[C@@]5(C)[C@]3(C)CC4)CC[C@]3(C)C(=CC[C@@H]4[C@@]5(C)CCC(=O)C(C)(C)[C@@H]5CC[C@]43C)[C@H]2C1
false (0)
C[C@@H](NC(=O)[C@@H](CC(=O)N1CCC(N2CCCCC2)CC1)N1C(=O)[C@@H](N2C(=O)OC[C@@H]2c2ccccc2)[C@H]1/C=C/c1cccc(Cl)c1)c1ccccc1
false (0)
O=c1cc(-c2ccccc2)oc2c(O)c(O)ccc12
false (0)
O=C(NCc1ccc(Cn2c(=O)sn(-c3ccccc3)c2=O)cc1)OCc1ccc2c(Br)cc(Br)c(O)c2n1
true (1)
O=S(=O)(NCCNc1nccc(-c2c(-c3cccc(F)c3)nc3occn23)n1)c1ccc(C(F)(F)F)cc1
false (0)
C[C@H]1[C@H](C)CC[C@]2(COC(=O)CCC(=O)O)CC[C@]3(C)C(=CC[C@@H]4[C@@]5(C)CCCNC(C)(C)[C@@H]5CC[C@]43C)[C@H]12
false (0)
O=C1Nc2ccccc2/C1=C/C(=O)c1ccc(N2CCOCC2)cc1
false (0)
O=C1Nc2ccccc2/C1=C/C(=O)c1ccc(N2CCCCC2)cc1
false (0)

Outcome logged for C=C(C)[C@@H]1CC[C@]2(C(=O)NCCNCCNCCN)CC[C@]3(C)[C@H](CC[C@@H]4[C@@]5(C)CCC(=O)C(C)(C)[C@@H]5CC[C@]43C)[C@@H]12 in this assay:
false (0)

Subsequent entry: CCN(CC)CCCNCc1cc(-c2ccccc2)nc2ccccc12
false (0)

Record: C[C@@H]1C[C@H]2C(=O)O[C@@H](C)[C@H](NC(=O)[C@H](Cc3cc(F)cc(F)c3)NC(=O)Nc3ccc(Cl)cc3F)C(=O)N3C[C@H](O)C[C@H]3C(=O)N3CCN(C)C[C@H]3C(=O)N[C@@H](C)C(=O)N2C1
false (0)

Note, next up: CCN(CC)c1ccc(/C=C/c2ccc3cc(C)ccc3[n+]2CC)cc1
false (0)

Now the compound C#CCC(C(=O)OCC)C(=O)OCC
false (0)

Field entry: C=C(C)[C@@H]1CC[C@]2(C(N)=O)CC[C@]3(C)[C@H](CC[C@@H]4[C@@]5(C)CC[C@H](O)C(C)(C)[C@@H]5CC[C@]43C)[C@@H]12
true (1)

Param item: CCCCN(CC)CC(CC)Nc1cc(OC)cc2cccnc12 (stereo not given)
false (0)

* * *

Provide the recorded growth for the entries that follow.
# Test system: CAKI-1 renal
# PROCEDURE SUMMARY: NCI-60 one-dose screen, 48 h (100 = growth as untreated, 0 = no growth, -100 = all killed)
# CONDITION PARAMETERS: 10 µM unless noted
The panel holds about 83,000 compounds, 20% with a hit somewhere; the sample as a whole holds those more often.
Numbers only, in %.

Completed entries (count: 6):
N#C/C(=C(/O)CCCO)c1nc2ccccc2c(=O)[nH]1
149
O=c1[nH]cnc2c1ccn2C1OC(CO)C(O)C1O (stereo unspecified)
37.2
CC/C=C(\C)C(CCC)(CN=O)C(=O)OCC (stereo unspecified)
104
CC1Cc2c(Cl)ncnc2N(C)c2ccc(Cl)cc21 (stereo unspecified)
8.59
CC1=CCc2ccccc21
87.7
COc1cc2c(=O)[nH]c3cc([N+](=O)[O-])ccc3c2cc1[N+](=O)[O-]
45.7

State the recorded growth for every item in the following list.
1. CO[C@H]1CC[C@@]2(C)C(=CC[C@H]3[C@@H]4C[C@H](O)C[C@@]4(C)CC[C@@H]32)C1
2. CCc1ccc(-c2ccc(COc3ccc(CC4SC(=O)NC4=O)cc3)cc2)cc1 (stereo unspecified)
3. Cc1cc[n+](CCCCCCCCCC[n+]2ccc(C)cc2)cc1
4. O=C1C(Cl)=C(Nc2ccc3cn[nH]c3c2)C(=O)c2ccccc21
5. CC(=O)n1cc(C=O)c2ccccc21

42.8
51
96.6
-94.4
100
